meta.source: patent US11254663B2

molecular target: FXR (Homo sapiens (Human)); experiment: transient human FXR/Gal4-luciferase reporter assay; format: cell-based; conditions: Gal4-hFXR fusion construct, HEK293 reporter cells; response relative to 8 μM GW-4064

# smiles-input, units-text, EC50
data = [
    ("CC1(c2nc(C34CCC(CN(C(=O)C56CC(F)(C5)C6)c5cccc(-c6ccc(NS(=O)(=O)C7CC7)cc6)c5)(CC3)CC4)no2)CC1", "µM", 0.183),
    ("CCOc1ccc(-c2cccc(N(CC34CCC(c5nc(C6CC6)no5)(CC3)CC4)C(=O)C34CC(F)(C3)C4)c2)nn1", "µM", 0.234),
    ("CCOc1ccc(-c2cncc(N(CC34CCC(c5nc(C6CC6)no5)(CC3)CC4)C(=O)C34CC(F)(C3)C4)c2)cc1", "µM", 0.483),
    ("CC(C)(C)c1noc(C23CCC(CN(C(=O)C45CC(F)(C4)C5)c4cccc(-c5cnc(C6CC6)nc5)c4)(CC2)CC3)n1", "µM", 0.154),
    ("CC(C)(C)c1nc(C23CCC(CN(C(=O)C45CC(F)(C4)C5)c4cncc(-c5ccc(OC(F)F)cn5)c4)(CC2)CC3)no1", "µM", 0.089),
    ("O=C(N(CC12CCC(c3nc(C4CC4)no3)(CC1)CC2)c1cccc(-c2ccc3ncsc3c2)c1)C12CC(F)(C1)C2", "µM", 0.035),
    ("COCc1ccc(-c2cccc(N(CC34CCC(c5nc(C6CC6)no5)(CC3)CC4)C(=O)C34CC(F)(C3)C4)c2)cn1", "µM", 0.106),
    ("CS(=O)(=O)Nc1ccc(-c2cccc(N(CC34CCC(c5nnc(C6CC6)o5)(CC3)CC4)C(=O)C34CC(F)(C3)C4)c2)cc1", "µM", 0.293),
    ("CC1(c2nc(C34CCC(CN(C(=O)C56CC(F)(C5)C6)c5cccc(-c6cnc(C7CC7)nc6)c5)(CC3)CC4)no2)CC1", "µM", 0.1),
    ("CCc1cnc(-c2cccc(N(CC34CCC(c5noc(C(C)(C)C)n5)(CC3)CC4)C(=O)C34CC(F)(C3)C4)c2)nc1", "µM", 0.034),
    ("CCc1ccc(-c2cccc(N(CC34CCC(c5nc(C6CC6)no5)(CC3)CC4)C(=O)C34CC(F)(C3)C4)c2)cc1", "µM", 0.225),
]

---

target: FXR (Homo sapiens (Human), UniProt Q96RI1); experiment: FXR EC50 (FXR agonist potency reported with each Example); format: cell-based
Sequence (Q96RI1 262-486): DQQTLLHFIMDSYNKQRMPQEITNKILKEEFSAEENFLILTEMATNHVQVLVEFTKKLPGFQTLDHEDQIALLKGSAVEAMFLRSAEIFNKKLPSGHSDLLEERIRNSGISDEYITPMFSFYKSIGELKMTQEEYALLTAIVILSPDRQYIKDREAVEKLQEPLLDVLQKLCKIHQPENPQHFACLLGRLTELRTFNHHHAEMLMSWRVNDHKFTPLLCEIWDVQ
// map EC50 onto a label; ranges bucket A (below 70 nM), bucket B (70 nM to below 200 nM), bucket C (200 nM or more)

# smiles-input, discrete-label
data = [
    ("CC(C)(C)c1nc(C23CCC(CN(C(=O)C45CC(F)(C4)C5)c4cccc(-c5cnn(S(=O)(=O)C6CC6)c5)c4)(CC2)CC3)no1", "bucket A"),
    ("Cn1nc(-c2cccc(N(CC34CCC(c5noc(C(C)(C)C)n5)(CC3)CC4)C(=O)C34CC(F)(C3)C4)c2)cc1C(C)(C)C", "bucket B"),
    ("CCOc1ccnc(-c2cccc(N(CC34CCC(c5nc(C6CC6)no5)(CC3)CC4)C(=O)C34CC(F)(C3)C4)c2)c1", "bucket C"),
    ("O=C(N(CC12CCC(c3nc(C4CC4)co3)(CC1)CC2)c1cccc(-c2cnc(C3CC3)o2)c1)C12CC(F)(C1)C2", "bucket A"),
    ("O=C(C1CC(F)(F)C1)N(CC12CCC(c3nc(CC4CC4)no3)(CC1)CC2)c1cccc(-c2nc(CC3CC3)no2)c1", "bucket C"),
    ("O=C(N(CC12CCC(c3nc(C4CC4)no3)(CC1)OC2)c1cccc(-c2noc(C3CC3)n2)c1)C12CC(F)(C1)C2", "bucket B"),
    ("O=C(N(CC12CCC(c3nc(C4CC4)no3)(CC1)CC2)c1cccc(-c2cnn(S(=O)(=O)C3CC3)c2)c1)C12CC(F)(C1)C2", "bucket A"),
    ("CCOc1nnc(-c2cccc(N(CC34CCC(c5nc(C6CC6)no5)(CC3)CC4)C(=O)C34CC(F)(C3)C4)c2)o1", "bucket B"),
    ("COc1ccc(NC(=O)N(CC23CCC(c4nc(C5CC5)no4)(CC2)CC3)c2cccc(-c3nc(C4CC4)no3)c2)cc1", "bucket C"),
    ("CC(C)(C)c1nc(C23CCC(CN(C(=O)C45CC(F)(C4)C5)c4cncc(-c5nc(C6CC6)no5)c4)(CC2)CC3)no1", "bucket A"),
    ("CC(C)c1nc(-c2cccc(N(CC34CCC(c5cc(C6CC6)nn5C)(CC3)CC4)C(=O)C34CC(F)(C3)C4)c2)no1", "bucket B"),
]

---

molecular target: UniProt Q96RI1; test: transient human FXR/Gal4-luciferase reporter assay; assay type: cell-based; details: Gal4-hFXR fusion construct, HEK293 reporter cells; response relative to 8 μM GW-4064
Listed below: EC50 values for each entry.

# smiles-input, EC50 [nM]
rows = [
    ("COc1ccc(-c2cccc(N(CC34CCC(c5ccc(C6(C#N)CC6)cc5)(CC3)OC4)C(=O)C34CC(F)(C3)C4)c2)cn1", 296),
    ("CN1CCN(c2cccc(N(CC34CCC(c5nc(C6CC6)no5)(CC3)CC4)C(=O)C34CC(F)(C3)C4)c2)CC1", 1060),
    ("N#Cc1cc(-c2cccc(N(CC34CCC(c5nc(C6CC6)no5)(CC3)CC4)C(=O)C34CC(F)(C3)C4)c2)ccc1F", 579),
    ("O=C(N(CC12CCC(c3nc(C4CC4)no3)(CC1)CC2)c1cccc(-c2ccc(C(F)(F)F)cc2)c1)C12CC(F)(C1)C2", 250),
]

---

Listed below: EC50 values for each entry.
molecular target: FXR (Homo sapiens (Human), UniProt Q96RI1); assay: transient human FXR/Gal4-luciferase reporter assay; type: cell-based; conditions: Gal4-hFXR fusion construct, HEK293 reporter cells; response relative to 8 μM GW-4064

# smiles-input, units-text, EC50
data = [
    ("O=C(N(CC12CCC(c3nc(C4CC4)no3)(CC1)CC2)c1cccc(-c2ccc(Cl)c(Cl)c2)c1)C12CC(F)(C1)C2", "nM", 361),
    ("Cc1nc2ccc(-c3cccc(N(CC45CCC(c6cc(C(F)(F)F)ccn6)(CC4)CC5)C(=O)C45CC(F)(C4)C5)c3)cc2s1", "nM", 800),
    ("CCOc1ncc(-c2cccc(N(CC34CCC(c5noc(C(F)F)n5)(CC3)CC4)C(=O)C34CC(F)(C3)C4)c2)cn1", "nM", 192),
    ("O=C(N(CC12CCC(c3nc(C4CC4)no3)(CC1)CC2)c1cccc(-c2ccc(NS(=O)(=O)C3CC3)cc2)c1)C12CC(F)(C1)C2", "nM", 142),
    ("Cc1nc2cc(-c3cccc(N(CC45CCC(c6nc(C7CC7)no6)(CC4)CC5)C(=O)C45CC(F)(C4)C5)c3)ccc2s1", "nM", 349),
    ("COc1cc(-c2cccc(N(CC34CCC(C(=O)NC5CC5)(CC3)CC4)C(=O)C34CC(F)(C3)C4)c2)ccn1", "nM", 926),
    ("CS(=O)(=O)Nc1cccc(-c2cccc(N(CC34CCC(c5nc(C6CC6)no5)(CC3)CC4)C(=O)C34CC(F)(C3)C4)c2)c1", "nM", 219),
    ("CCOc1ncc(-c2cccc(N(CC34CCC(c5ncc(OC)cn5)(CC3)CC4)C(=O)C34CC(F)(C3)C4)c2)cn1", "nM", 359),
    ("CCOc1ccc(-c2cccc(N(CC34CCC(c5noc(C6(C)CC6)n5)(CC3)CC4)C(=O)C34CC(F)(C3)C4)c2)cc1", "nM", 58),
    ("Cc1cn2cc(-c3cccc(N(CC45CCC(c6nc(C7CC7)no6)(CC4)CC5)C(=O)C45CC(F)(C4)C5)c3)c(C)cc2n1", "nM", 493),
    ("CC(C)(C#N)OC(=O)N(CC12CCC(c3noc(C(C)(C)F)n3)(CC1)CC2)c1cccc(-c2ccc(C(C)(C)O)cc2)c1", "nM", 29),
    ("CCOc1ncc(-c2cccc(N(CC34CCC(c5nc(C(C)(C)C)no5)(CC3)CC4)C(=O)C34CC(F)(C3)C4)c2)cn1", "nM", 83),
    ("O=C(N(CC12CCC(c3nc(C4CC4)no3)(CC1)CC2)c1cccc(-c2cnc(C(F)(F)F)nc2)c1)C12CC(F)(C1)C2", "nM", 140),
    ("Cn1nc(C2CC2)cc1C12CCC(CN(C(=O)C34CC(F)(C3)C4)c3cccc(-c4ccc(NS(C)(=O)=O)cc4)c3)(CC1)CC2", "nM", 105),
    ("CC(C)(C)c1noc(C23CCC(CN(C(=O)C45CC(F)(C4)C5)c4cccc(-c5ccc(OC(F)F)cc5)c4)(CC2)CC3)n1", "nM", 135),
    ("Cc1cc(-c2cccc(N(CC34CCC(c5nc(C6CC6)no5)(CC3)CC4)C(=O)C34CC(F)(C3)C4)c2)nc2scnc12", "nM", 303),
    ("O=C(N(CC12CCC(c3nc(C4CC4)no3)(CC1)CC2)c1cccc(-c2ccc(F)cn2)c1)C12CC(F)(C1)C2", "nM", 316),
    ("O=C(N(CC12CCC(c3nc(C4CC4)no3)(CC1)CC2)c1cccc(-c2ccc(OC(F)(F)F)cc2)c1)C12CC(F)(C1)C2", "nM", 277),
    ("NS(=O)(=O)c1cccc(-c2cccc(N(CC34CCC(c5nc(C6CC6)no5)(CC3)CC4)C(=O)C34CC(F)(C3)C4)c2)c1", "nM", 521),
]
